# System: 624824-186-R-J2-PDC multicell spheroids, viability
# Procedure Summary: Anticancer human tumor 624824-186-R-J2-PDC patient-derived colon adenocarcinoma cell line growth inhibition [PI3K]; active = viability on the fitted dose curve at most 10% of control; inactive = the rest
# Study Conditions: second compound 0.01 µM; first compound 10 µM
Possible outcomes: active, inactive

Compound	System	Label
CNC(=O)c1ccc(N2C(=S)N(c3ccc(C#N)c(C(F)(F)F)c3)C(=O)C2(C)C)cc1F + COc1c(OCCCN2CCOCC2)ccc2c3n(c(=NC(=O)c4cnc(N)nc4)nc12)CCN3	624824-186-R-J2-PDC multicell spheroids, viability	inactive
CNC(=O)c1ccc(N2C(=S)N(c3ccc(C#N)c(C(F)(F)F)c3)C(=O)C2(C)C)cc1F + CC(Nc1ccc2c(c1)OCCn1cc(N3C(=O)OCC3C(F)F)nc1-2)C(N)=O	624824-186-R-J2-PDC multicell spheroids, viability	inactive
C=CC(=O)N1CCN(c2nc(=O)n(-c3c(C)ccnc3C(C)C)c3nc(-c4c(O)cccc4F)c(F)cc23)C(C)C1 (stereo not given) + COc1c(OCCCN2CCOCC2)ccc2c3n(c(=NC(=O)c4cnc(N)nc4)nc12)CCN3	624824-186-R-J2-PDC multicell spheroids, viability	inactive
CC1(C)CCC(Nc2ncc(C(F)(F)F)c(-c3c[nH]c4c(P(C)(C)=O)c(C#N)ccc34)n2)CN1 (stereo not given) + CC(Nc1ccc2c(c1)OCCn1cc(N3C(=O)OCC3C(F)F)nc1-2)C(N)=O	624824-186-R-J2-PDC multicell spheroids, viability	active
Cn1ncc(Cl)c1-c1cc(C(=O)NC(CN)Cc2cccc(F)c2)sc1Cl (stereo not given) + CC(Nc1ccc2c(c1)OCCn1cc(N3C(=O)OCC3C(F)F)nc1-2)C(N)=O	624824-186-R-J2-PDC multicell spheroids, viability	inactive

----------
Quick reference for viability, T/C among some compounds
# Test system: 624824-186-R-J2-PDC multicell spheroids, viability
# Procedure Summary: Anticancer human tumor 624824-186-R-J2-PDC cell line growth inhibition [PI3K];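 also: spheroids exposed to agents for 7 days before viability read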;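 as to viability, T/C: 100% = DMSO vehicle treated spheroids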
# Study Conditions: second compound 0.0316 µM; first compound 1 µM; stronger effect = lower value

Compound	System	viability, T/C / %
C[C@@H](NC(=O)c1ncnc(N)c1Cl)c1ncc(C(=O)Nc2cc(C(F)(F)F)c(Cl)cn2)s1 + COc1c(OCCCN2CCOCC2)ccc2c3n(c(=NC(=O)c4cnc(N)nc4)nc12)CCN3	624824-186-R-J2-PDC multicell spheroids, viability	63.9
CCCS(=O)(=O)Nc1ccc(F)c(C(=O)c2c[nH]c3ncc(-c4ccc(Cl)cc4)cc23)c1F + CC(Nc1ccc2c(c1)OCCn1cc(N3C(=O)OCC3C(F)F)nc1-2)C(N)=O	624824-186-R-J2-PDC multicell spheroids, viability	89.1
CCCS(=O)(=O)Nc1ccc(F)c(C(=O)c2c[nH]c3ncc(-c4ccc(Cl)cc4)cc23)c1F + COc1c(OCCCN2CCOCC2)ccc2c3n(c(=NC(=O)c4cnc(N)nc4)nc12)CCN3	624824-186-R-J2-PDC multicell spheroids, viability	55.6
CC(Cn1ccc(-c2ccc(C#N)c(Cl)c2)n1)NC(=O)c1cc(C(C)O)[nH]n1 (stereo not given) + Cc1nc(NC(=O)N2CCCC2C(N)=O)sc1-c1ccnc(C(C)(C)C(F)(F)F)c1	624824-186-R-J2-PDC multicell spheroids, viability	92.2
CNC(=O)c1ccc(N2C(=S)N(c3ccc(C#N)c(C(F)(F)F)c3)C(=O)C2(C)C)cc1F + CC(Nc1ncnc2nc[nH]c12)c1cc2cccc(Cl)c2c(=O)n1-c1ccccc1	624824-186-R-J2-PDC multicell spheroids, viability	98.4

----------
# System: 624824-186-R-J2-PDC multicell spheroids, viability
# Procedure Summary: Anticancer human tumor 624824-186-R-J2-PDC cell line growth inhibition [PI3K];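 also: spheroids exposed to agents for 7 days before viability read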;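 as to viability, T/C: 100% = DMSO vehicle treated spheroids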
# Study Conditions: second compound 3.16 µM; first compound 0.316 µM; stronger effect = lower value
Quick reference for viability, T/C among some molecules
Property: viability, T/C (%)

Molecule	Observed Result
CC(C)NCC(C(=O)N1CCN(c2ncnc3c2C(C)CC3O)CC1)c1ccc(Cl)cc1 (stereo not drawn) + Cc1nc(NC(=O)N2CCCC2C(N)=O)sc1-c1ccnc(C(C)(C)C(F)(F)F)c1	81.3
Cn1nccc1Nc1nccc(-c2ccn(C(CO)c3ccc(Cl)c(F)c3)c(=O)c2)n1 (stereo not drawn) + Cc1nc(NC(=O)N2CCCC2C(N)=O)sc1-c1ccnc(C(C)(C)C(F)(F)F)c1	65
CC1(C)CCC(Nc2ncc(C(F)(F)F)c(-c3c[nH]c4c(P(C)(C)=O)c(C#N)ccc34)n2)CN1 (stereo not drawn) + Cc1nc(NC(=O)N2CCCC2C(N)=O)sc1-c1ccnc(C(C)(C)C(F)(F)F)c1	91.4

----------
# Tested on: 624824-186-R-J2-PDC multicell spheroids, viability
# Procedure Summary: Anticancer human tumor 624824-186-R-J2-PDC cell line growth inhibition [PI3K];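 also: spheroids exposed to agents for 7 days before viability read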;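 as to viability, T/C: 100% = DMSO vehicle treated spheroids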
# Study Conditions: second compound 0.0316 µM; first compound 1 µM; stronger effect = lower value
Mark yes (1) only when viability, T/C stays strictly below 90%. Values equal to the cut-off are no (0).

Compound	Label
C#Cc1c(F)ccc2cc(O)cc(-c3ncc4c(N5CC6CCC(C5)N6)nc(OCC56CCCN5CC(F)C6)nc4c3F)c12 (stereo not given) + COc1c(OCCCN2CCOCC2)ccc2c3n(c(=NC(=O)c4cnc(N)nc4)nc12)CCN3	yes (1)
Cn1nccc1Nc1nccc(-c2ccn(C(CO)c3ccc(Cl)c(F)c3)c(=O)c2)n1 (stereo not given) + COc1c(OCCCN2CCOCC2)ccc2c3n(c(=NC(=O)c4cnc(N)nc4)nc12)CCN3	yes (1)
CC1(C)CCC(Nc2ncc(C(F)(F)F)c(-c3c[nH]c4c(P(C)(C)=O)c(C#N)ccc34)n2)CN1 (stereo not given) + CC(Nc1ccc2c(c1)OCCn1cc(N3C(=O)OCC3C(F)F)nc1-2)C(N)=O	no (0)
CC(Cn1ccc(-c2ccc(C#N)c(Cl)c2)n1)NC(=O)c1cc(C(C)O)[nH]n1 (stereo not given) + CC(Nc1ccc2c(c1)OCCn1cc(N3C(=O)OCC3C(F)F)nc1-2)C(N)=O	no (0)
CC1(C)CCC(Nc2ncc(C(F)(F)F)c(-c3c[nH]c4c(P(C)(C)=O)c(C#N)ccc34)n2)CN1 (stereo not given) + COc1c(OCCCN2CCOCC2)ccc2c3n(c(=NC(=O)c4cnc(N)nc4)nc12)CCN3	yes (1)
Cn1ncc(Cl)c1-c1cc(C(=O)NC(CN)Cc2cccc(F)c2)sc1Cl (stereo not given) + Cc1nc(NC(=O)N2CCCC2C(N)=O)sc1-c1ccnc(C(C)(C)C(F)(F)F)c1	yes (1)
Cn1ncc(Cl)c1-c1cc(C(=O)NC(CN)Cc2cccc(F)c2)sc1Cl (stereo not given) + CC(Nc1ccc2c(c1)OCCn1cc(N3C(=O)OCC3C(F)F)nc1-2)C(N)=O	yes (1)
CC1(C)CCC(CN2CCN(c3ccc(C(=O)NS(=O)(=O)c4ccc(NCC5CCOCC5)c([N+](=O)[O-])c4)c(Oc4cnc5[nH]ccc5c4)c3)CC2)=C(c2ccc(Cl)cc2)C1 + CC(Nc1ncnc2nc[nH]c12)c1cc2cccc(Cl)c2c(=O)n1-c1ccccc1	yes (1)
CCN1CCN(Cc2ccc(Nc3ncc(F)c(-c4cc(F)c5nc(C)n(C(C)C)c5c4)n3)nc2)CC1 + CC(Nc1ccc2c(c1)OCCn1cc(N3C(=O)OCC3C(F)F)nc1-2)C(N)=O	no (0)
CC1(C)CCC(Nc2ncc(C(F)(F)F)c(-c3c[nH]c4c(P(C)(C)=O)c(C#N)ccc34)n2)CN1 (stereo not given) + CC(Nc1ncnc2nc[nH]c12)c1cc2cccc(Cl)c2c(=O)n1-c1ccccc1	no (0)
CC(Cn1ccc(-c2ccc(C#N)c(Cl)c2)n1)NC(=O)c1cc(C(C)O)[nH]n1 (stereo not given) + CC(Nc1ncnc2nc[nH]c12)c1cc2cccc(Cl)c2c(=O)n1-c1ccccc1	no (0)
CNC(=O)c1ccc(N2C(=S)N(c3ccc(C#N)c(C(F)(F)F)c3)C(=O)C2(C)C)cc1F + Cc1nc(NC(=O)N2CCCC2C(N)=O)sc1-c1ccnc(C(C)(C)C(F)(F)F)c1	no (0)
CC(Cn1ccc(-c2ccc(C#N)c(Cl)c2)n1)NC(=O)c1cc(C(C)O)[nH]n1 (stereo not given) + COc1c(OCCCN2CCOCC2)ccc2c3n(c(=NC(=O)c4cnc(N)nc4)nc12)CCN3	yes (1)
C=CC(=O)N1CCN(c2nc(=O)n(-c3c(C)ccnc3C(C)C)c3nc(-c4c(O)cccc4F)c(F)cc23)C(C)C1 (stereo not given) + CC(Nc1ccc2c(c1)OCCn1cc(N3C(=O)OCC3C(F)F)nc1-2)C(N)=O	yes (1)

----------
# System: 624824-186-R-J2-PDC multicell spheroids, viability
# Procedure Summary: Anticancer human tumor 624824-186-R-J2-PDC cell line growth inhibition [PI3K];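 also: spheroids exposed to agents for 7 days before viability read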
# Study Conditions: curve of first compound; second compound 0.316 µM
Quick reference for IC50 among some compounds
Property: IC50

Compound	Property	Observed Result
CC(=O)c1c(C)c2cnc(Nc3ccc(N4CCNCC4)cn3)nc2n(C2CCCC2)c1=O + COc1c(OCCCN2CCOCC2)ccc2c3n(c(=NC(=O)c4cnc(N)nc4)nc12)CCN3	IC50	> 0.1 µM
C#Cc1c(F)ccc2cc(O)cc(-c3ncc4c(N5CC6CCC(C5)N6)nc(OCC56CCCN5CC(F)C6)nc4c3F)c12 (stereo not given) + CC(Nc1ccc2c(c1)OCCn1cc(N3C(=O)OCC3C(F)F)nc1-2)C(N)=O	IC50	> 10 µM
CC1(C)CCC(CN2CCN(c3ccc(C(=O)NS(=O)(=O)c4ccc(NCC5CCOCC5)c([N+](=O)[O-])c4)c(Oc4cnc5[nH]ccc5c4)c3)CC2)=C(c2ccc(Cl)cc2)C1 + Cc1nc(NC(=O)N2CCCC2C(N)=O)sc1-c1ccnc(C(C)(C)C(F)(F)F)c1	IC50	> 10 µM
C=CC(=O)N1CCN(c2nc(=O)n(-c3c(C)ccnc3C(C)C)c3nc(-c4c(O)cccc4F)c(F)cc23)C(C)C1 (stereo not given) + Cc1nc(NC(=O)N2CCCC2C(N)=O)sc1-c1ccnc(C(C)(C)C(F)(F)F)c1	IC50	> 10 µM
C[C@@H](NC(=O)c1ncnc(N)c1Cl)c1ncc(C(=O)Nc2cc(C(F)(F)F)c(Cl)cn2)s1 + CC(Nc1ccc2c(c1)OCCn1cc(N3C(=O)OCC3C(F)F)nc1-2)C(N)=O	IC50	> 10 µM
